# System: Caco-2
# procedure_details: cell viability relative to DMSO; higher = less toxic
# condition_description: 72 h; 1 nM
measurement_label: cell viability

{"columns": ["compound", "target_system", "measurement_label", "experimental_result"],
 "data": [
  ["C/C=C/C[C@@H](C)C(=O)[C@H]1C(=O)N[C@@H](C(C)C)C(=O)N(C)CC(=O)N(C)[C@@H](CC(C)C)C(=O)N[C@@H](C(C)C)C(=O)N(C)[C@@H](CC(C)C)C(=O)N[C@@H](C)C(=O)N[C@H](C)C(=O)N(C)[C@@H](CC(C)C)C(=O)N(C)[C@@H](CC(C)C)C(=O)N(C)[C@@H](C(C)C)C(=O)N1C [valspodar]", "Caco-2", "cell viability", "119%"],
  ["COc1cc(/C=C/c2ccc(OC)cc2OC)cc(OC)c1 [TMS]", "Caco-2", "cell viability", "86.4%"],
  ["O=C(CNC(=O)c1ccc(Cl)cc1)NO [benurestat]", "Caco-2", "cell viability", "98.5%"],
  ["NC/C(=C/F)CCc1ccc(F)cc1 [mofegiline]", "Caco-2", "cell viability", "89.5%"],
  ["COc1cc(SC)ccc1C(=O)N1CCC(Cc2ccccc2)CC1 [JX-401]", "Caco-2", "cell viability", "95.5%"],
  ["COc1cc(Br)c(S(=O)(=O)Nc2ccc(Cl)c(O[C@@H]3CCN(C)C3)c2)cc1OC", "Caco-2", "cell viability", "104%"],
  ["C[C@@H]1C[C@H]2[C@@H]3CCC4=CC(=O)C=C[C@]4(C)[C@@]3(F)[C@@H](O)C[C@]2(C)[C@@]1(O)C(=O)COP(=O)(O)O [DEXAMETHASONE SODIUM PHOSPHATE]", "Caco-2", "cell viability", "95.9%"]
]}

###

# Tested on: Calu-3
# procedure_details: cell viability relative to DMSO; higher = less toxic
# condition_description: 72 h; 1 nM
measurement_label: cell viability (%)

{"columns": ["compound", "measurement_label", "unit_abbreviation", "experimental_result"],
 "data": [
  ["COc1ccc(-c2coc3cc(O)ccc3c2=O)cc1 [formononetin]", "cell viability", "%", 103],
  ["CC(C)COC(=O)c1ccc(N)cc1 [isobutamben]", "cell viability", "%", 87.8],
  ["NC/C(=C/F)CCc1ccc(F)cc1 [mofegiline]", "cell viability", "%", 102],
  ["O=C1c2c(O)cc(O)cc2O[C@H](c2cc(O)c(O)c(O)c2)[C@H]1O [dihydromyricetin]", "cell viability", "%", 105],
  ["Cc1ccc([N+](=O)[O-])cc1S(=O)(=O)N(C)C", "cell viability", "%", 97.2],
  ["O=C1CN=C(c2cccc(Br)c2)c2oc3ccccc3c2N1 [5-BDBD]", "cell viability", "%", 103],
  ["BrC1C(Br)C(Br)C(Br)C(Br)C1Br (stereo unspecified) [1,2,3,4,5,6-hexabromocyclohexane]", "cell viability", "%", 106],
  ["COc1cc([C@@H]2c3cc4c(cc3[C@@H](O[C@@H]3O[C@@H]5CO[C@@H](c6cccs6)O[C@H]5[C@H](O)[C@H]3O)[C@H]3COC(=O)[C@H]23)OCO4)cc(OC)c1O [teniposide]", "cell viability", "%", 91.1],
  ["CNCCC=C1c2ccccc2C=Cc2ccccc21 [norcyclobenzaprine]", "cell viability", "%", 109],
  ["C[C@H](N)C(=O)O [L-alanine]", "cell viability", "%", 102],
  ["COc1ccc(S(=O)(=O)Nc2cccnc2Nc2ccc(O)cc2)cc1 [ABT-751]", "cell viability", "%", 108],
  ["Cc1[nH]c2ccc(O)cc2c1CCN [2-methyl-5-hydroxytryptamine]", "cell viability", "%", 109],
  ["CCCCCCCCCCCCCCCCNc1ccc(C(=O)O)cc1 [cetaben]", "cell viability", "%", 99.5],
  ["O=C(NC1CCNCC1)[C@@H]1CC[C@@H]2CN1C(=O)N2OS(=O)(=O)O [relebactam]", "cell viability", "%", 110],
  ["O=c1cc(-c2ccc(O)cc2)oc2cc(O)cc(O)c12 [apigenin]", "cell viability", "%", 104],
  ["O=C(O)CCc1nc(-c2ccccc2)c(-c2ccccc2)o1 [oxaprozin]", "cell viability", "%", 98.3],
  ["O=C(O)CCCCCCNC1c2ccccc2CCc2ccccc21 [amineptine]", "cell viability", "%", 101],
  ["CN(C(=O)/C=C/c1ccoc1)[C@@H]1CC[C@@]2(O)[C@H]3Cc4ccc(O)c5c4[C@@]2(CCN3CC2CC2)[C@H]1O5 [nalfurafine]", "cell viability", "%", 92.2],
  ["Cc1nn(-c2ccccc2)c(C)c1/C=N/N1CCN(Cc2ccccc2)CC1 [SANT-1]", "cell viability", "%", 98.6],
  ["NCC(CS(=O)(=O)O)c1ccc(Cl)cc1 (stereo unspecified) [saclofen]", "cell viability", "%", 96.2],
  ["C1CCC(C(CC2CCCCN2)C2CCCCC2)CC1 (stereo unspecified) [perhexiline]", "cell viability", "%", 108],
  ["COc1ccc(/C=C/CCCCOc2ccc(C(=O)c3cccc(C(=O)O)c3)cc2CCC(=O)O)cc1", "cell viability", "%", 102],
  ["CCC1(CC)C(=O)NC(=O)N(C)C1=O [metharbital]", "cell viability", "%", 110],
  ["CO[C@H]1/C=C/O[C@@]2(C)Oc3c(C)c(O)c4c(O)c(c5c(nc6cc(C)ccn65)c4c3C2=O)NC(=O)/C(C)=C\\C=C\\[C@H](C)[C@H](O)[C@@H](C)[C@@H](O)[C@@H](C)[C@H](OC(C)=O)[C@@H]1C [rifaximin]", "cell viability", "%", 94.7],
  ["Clc1ccc(C(Cn2ccnc2)OCc2ccsc2Cl)c(Cl)c1 (stereo unspecified) [tioconazole]", "cell viability", "%", 103],
  ["Nc1ccc(O)c(C(=O)O)c1 [mesalazine]", "cell viability", "%", 109],
  ["CC1(C)O[C@H]2CC(=O)OC[C@]23[C@H]2CC[C@@]4(C)[C@H](c5ccoc5)OC(=O)[C@H]5O[C@]54[C@]2(C)C(=O)C[C@@H]13 [limonin]", "cell viability", "%", 104],
  ["CCCN(C/C=C/I)[C@H]1CCc2ccc(O)cc2C1 [7-hydroxy-PIPAT]", "cell viability", "%", 111],
  ["O=C(NCCCN1CCOCC1)c1cnn2c(-c3ccccc3)cc(-c3ccccc3)nc12 [reversan]", "cell viability", "%", 105],
  ["CC(C)n1nc(-c2ccc3oc(N)nc3c2)c2c(N)ncnc21 [MLN0128]", "cell viability", "%", 88.6],
  ["C/C(=N\\NC(=N)N)c1cc(NC(=O)CCCCCCCCC(=O)Nc2cc(/C(C)=N/NC(=N)N)cc(/C(C)=N/NC(=N)N)c2)cc(/C(C)=N/NC(=N)N)c1 [semapimod]", "cell viability", "%", 98.5],
  ["OC[C@H]1O[C@@H](n2cnc3c(NC4CCCC4)ncnc32)[C@H](O)[C@@H]1O [N6-cyclopentyladenosine]", "cell viability", "%", 108],
  ["N#CCC(=O)c1ccccc1", "cell viability", "%", 103],
  ["Cc1ccc(C(=O)Nc2cccc(C(F)(F)F)c2)cc1Nc1nc(-c2cccnc2)nc2c1cnn2C [NVP-BHG712]", "cell viability", "%", 100],
  ["CC1(C)CCC(C)(C)c2cc(NC(=O)c3ccc(C(=O)O)cc3)ccc21 [tamibarotene]", "cell viability", "%", 95.4],
  ["CN1CCN(CCCN2c3ccccc3Sc3ccc(Cl)cc32)CC1 [prochlorperazine]", "cell viability", "%", 106]
]}

###

# Test system: Vero E6
# procedure_details: cell viability relative to DMSO; higher = less toxic
# condition_description: 72 h; 1000 nM
measurement_label: cell viability

{"columns": ["smiles", "measurement_label", "experimental_result"],
 "data": [
  ["CC[C@]12CCCN3CCc4c(n(c5ccccc45)[C@@](O)(C(=O)OC)C1)[C@@H]32", "cell viability", "94%"],
  ["CCN(CC)CC1CCN(c2ncc3ncnc(Nc4ccc(F)c(Cl)c4)c3n2)CC1", "cell viability", "63.2%"],
  ["O=S(=O)(c1ccccc1F)N1CCOc2c(N3CCNCC3)cccc21", "cell viability", "97.3%"],
  ["O=c1cc(N2CCOCC2)oc2c(-c3ccccc3)cccc12", "cell viability", "92.4%"],
  ["C[N+](C)(C)NCCC(=O)O", "cell viability", "97%"],
  ["CC#CC(=O)N1CCC[C@H]1c1nc(-c2ccc(C(=O)Nc3ccccn3)cc2)c2c(N)nccn12", "cell viability", "96.7%"],
  ["CCOc1nc2cccc(C(=O)OCc3oc(=O)oc3C)c2n1Cc1ccc(-c2ccccc2-c2noc(=O)[nH]2)cc1", "cell viability", "99.4%"],
  ["CCn1c(-c2nonc2N)nc2cncc(CNC3CCNCC3)c21", "cell viability", "93.8%"],
  ["CCN1CCCC1=O", "cell viability", "97.9%"]
]}
